Quick reference for log10 viscosity among some compounds
# CONDITION PARAMETERS: 303.15 K; 101.33 kPa; Liquid
RECORDED METRIC: log10 viscosity (log10 of the value in mPa·s)

COMPOUND | MEASURED
NC=O [formamide] | 0.47
OCCCCO | 1.76
CC(O)CCO (stereo not given) | 1.84
CCCCO | 0.36
CCC(C)O (stereo not given) | 0.40

----------
# CONDITION PARAMETERS: 293.15 K; 101.33 kPa; Liquid
Numbers after ± are expanded uncertainties.

COMPOUND | speed of sound
CCC(C)O (stereo not given) | 1232.6 ± 2.8 m/s
OCCCCO | 1616.4 ± 3.4 m/s
NC=O [formamide] | 1615.8 ± 3.3 m/s
CCCCO | 1262.4 ± 2.8 m/s
CC(O)CCO (stereo not given) | 1539.6 ± 3.3 m/s

----------
Quick reference for viscosity among some compounds
# CONDITION PARAMETERS: 308.15 K; 101.33 kPa; Liquid

COMPOUND | viscosity / mPa·s
NC=O [formamide] | 2.653
CCCCO [butan-1-ol] | 1.998
CCC(C)O (stereo not given) [butan-2-ol] | 2.106
OCCCCO [1,4-butanediol] | 44.88
CC(O)CCO (stereo not given) [1,3-butanediol] | 52.54

----------
# CONDITION PARAMETERS: 313.15 K; 101.33 kPa; Liquid
Quick reference for viscosity among some compounds
RECORDED METRIC: viscosity (mPa·s)

COMPOUND | RECORDED METRIC | OUTPUT UNIT | MEASURED
CC(O)CCO (stereo not given) | viscosity | mPa·s | 39.42
CCCCO | viscosity | mPa·s | 1.744
NC=O [formamide] | viscosity | mPa·s | 2.404
OCCCCO | viscosity | mPa·s | 35.81
CCC(C)O (stereo not given) | viscosity | mPa·s | 1.784

----------
# CONDITION PARAMETERS: 303.15 K; 101.33 kPa; Liquid

COMPOUND | speed of sound / m/s
NC=O [formamide] | 1589.2
OCCCCO | 1595.9
CC(O)CCO (stereo not given) | 1506.3
CCC(C)O (stereo not given) | 1194.6
CCCCO | 1224.6

----------
Quick reference for speed of sound among some molecules
# CONDITION PARAMETERS: 308.15 K; 101.33 kPa; Liquid
± gives the expanded uncertainty stated by the source.

MOLECULE | speed of sound
CC(O)CCO (stereo not given) [1,3-butanediol] | 1492.5 ± 3.2 m/s
OCCCCO [1,4-butanediol] | 1587.3 ± 3.3 m/s
NC=O [formamide] | 1577.2 ± 3.3 m/s
CCC(C)O (stereo not given) [butan-2-ol] | 1174.5 ± 2.7 m/s
CCCCO [butan-1-ol] | 1207.6 ± 2.7 m/s

----------
Quick reference for viscosity among some compounds
# CONDITION PARAMETERS: 298.15 K; 101.33 kPa; Liquid
RECORDED METRIC: viscosity (mPa·s)

COMPOUND | MEASURED
CCC(C)O (stereo not given) | 3.034
OCCCCO | 72.75
CCCCO | 2.542
CC(O)CCO (stereo not given) | 97.26
NC=O [formamide] | 3.322
